This collection of values is drawn from PubChem BioAssay (NCI).

# System: A549 NSCLC
# test_description: NCI tumour cell line growth inhibition, 48 h
assay_endpoint: TGI

// worked examples, TGI included
INSERT INTO assay_data (compound, data_value) VALUES
  ('CC1OC(CC(=O)O)Cc2c1c(O)c1c(O)cc(-c3cc(=O)c4c(=O)c5c(c(=O)c=4c3=O)CC(CC(=O)O)OC5C)c(O)c1c2O (stereo unspecified)', '> 100 µM'),
  ('CCc1cccc(C(C)CC)c1NC(=O)C(=O)Cc1nc2ccccc2o1 (stereo unspecified)', '> 50 µM');

[Q] # query: TGI of entry NNc1nc2ccccc2o1
[A] > 100 µM

[Q] What value of TGI has been reported for the following compound? O=c1cc(-c2ccccc2)oc2c1ccc1ccccc12
[A] > 100 µM

[Q] So what's the measured TGI for this one? Cc1oc2nc(N(C)C)nc(NN)c2c1C
[A] > 100 µM

[Q] I'd like to know its TGI. The compound in question is O=C1/C(=C/C=C/c2ccccc2)N=C(c2ccccc2)N1c1ccc(S(=O)(=O)Nc2nccs2)cc1
[A] > 100 µM

[Q] What TGI value was documented for this compound, C#Cc1cccc(NC(=O)c2cccc(NC(=O)CCl)c2)c1 ?
[A] > 82.5 µM

----------
# Tested on: RXF 393 renal
# test_description: NCI tumour cell line growth inhibition, 48 h
assay_endpoint: TGI

Worked examples, 3 compounds total:
INSERT INTO measurements (compound, data_value) VALUES
  ('CN1c2c(nc(N)[nH]c2=O)NCC1CCNc1ccc(C(=O)NC(CCC(=O)O)C(=O)O)cc1 (centres undefined)', '2490 µM'),
  ('O=C1OC(c2ccc(Cl)cc2)=N/C1=C\c1ccccc1', '> 100 µM'),
  ('CC[C@]1(Cc2ccc(OC)c(OC)c2)C2CC(C(=O)OC)ON2O[C@H](OCc2ccccc2)[C@@H]1OC(C)=O (some centres undefined)', '> 100 µM');

[Q] Recall the recorded TGI for COC(=O)CCC(=O)c1ccc2c(c1)CC1(C2)Cc2ccc(C(=O)CCC(=O)OC)cc2C1 with RXF 393 renal and state it.
[A] > 100 µM

----------
# System: CCRF-CEM leukemia
# test_description: NCI tumour cell line growth inhibition, 48 h
assay_endpoint: GI50

Observe how each entry below is paired with its result.
INSERT INTO results (compound, assay_endpoint, data_value) VALUES
  ('C1C[OH+]CCNCC[OH+]CC[OH+]CCN1.N.[Cl-].[Pt+4]', 'GI50', '53600 nM'),
  ('Cc1ccc(-c2nc(/C=N/Nc3cc(C)nc4ccc(Br)cc34)c(C)o2)cc1', 'GI50', '2170 nM'),
  ('COc1cc2c(c(OC)c1OC)-c1c(c3ccc([N+](=O)[O-])cc3c(=O)n1CCCBr)C2=O', 'GI50', '14800 nM');

[Q] What value of measured GI50 is listed for CCCS(=O)(=O)Nc1cccc(Nc2ncnc3cc(NC(=O)CCl)ccc23)c1Cl ?
[A] 1030 nM

[Q] Give the measured GI50 of S=C1SCN(Cc2ccccc2)CN1Cc1ccccc1 .
[A] 1150 nM

[Q] I have this compound here, CC(C)=Cc1cccc2[nH]c(O)c(N=Nc3ccc(S(N)(=O)=O)cc3)c12 , and I need its recorded GI50.
[A] 1230 nM

[Q] State the recorded GI50 for this entry: CC1(C)N=c2cc3c(cc2N1c1ccc(Cl)cc1)=Nc1ccccc1N3c1ccc(Cl)cc1
[A] 2600 nM

[Q] Using the record for Cc1ccc2[nH]c(C(=O)NN3C(=O)C(C)SC34CCC(C)CC4)c(-c3ccccc3)c2c1 (stereo unspecified) , report its GI50.
[A] 20400 nM

[Q] What does the data say about its GI50? Entry: O=C(Nc1ccccc1Cl)c1ccc(NC2=C(Cl)C(=O)N(C3CCCCC3)C2=O)cc1
[A] 8290 nM

[Q] // query GI50 value for entry O=C(Nc1cn[nH]c1-c1nc2ccc(CN3CCOCC3)cc2[nH]1)NC1CC1
[A] 1420 nM

[Q] Entry Cc1nc2ccccc2c(/C=C/c2ccccc2)c1C(=O)/C=C/c1ccc(C(F)(F)F)cc1 : reported GI50 = ?
[A] 381 nM

----------
# System: NCI-H460 lung
Please state which outcome applies, choosing from Yes = active, No = inactive

Take a look at these entries with their results.
INSERT INTO measurements (molecule, answer_label) VALUES
  ('CCn1c(SCC(=O)Nc2cc(C(F)(F)F)ccc2Cl)nc2ccccc2c1=O', 'No'),
  ('COc1ccc(-c2oc3c(OC)c(OC)c(OC)c(O)c3c(=O)c2OC)cc1O', 'Yes'),
  ('O=C1/C(=C/c2ccc(F)cc2)CN(C(=O)C(Cl)Cl)C/C1=C\c1ccc(F)cc1', 'Yes'),
  ('CC1=C2[C@@H](CC1)[C@]1(C)O[C@@](C(C)C)(C[C@H]1OC(=O)CO)[C@H]2OC(=O)CCCc1ccccc1', 'No');

[Q] Would you mind telling me which call this test gave CC[C@H]1CCC/C=C/[C@@H]2C[C@H](O)C[C@H]2[C@H](O)/C=C/C(=O)O1 ?
[A] Yes

[Q] Hi team, can someone confirm the assay call for O=c1cc(-c2ccccc2)oc2c1ccc1ccccc12 ?
[A] No

[Q] Recorded test outcome, item CC[O-].CC[O-].O=C([CH-]C(=O)c1ccccc1)CCCCCCC(=O)[CH-]C(=O)c1ccccc1.[Ti+4]
[A] No

[Q] For CC(=O)Nc1ccc(OC(C)=O)cc1 , what call appears in the results of this test?
[A] Yes

[Q] What did the test return for C#CCOC(=O)/C=C/C(=O)Oc1ccc2c(C)cc(=O)oc2c1 ?
[A] No

[Q] Hello, I am checking results. What call was entered for C1C[OH+]CCNCC[OH+]CC[OH+]CCN1.N.[Cl-].[Pt+4] ?
[A] No

[Q] Answer briefly: the call reported for CCC[CH2][Sn]1([CH2]CCC)[O]CC[S]1 in this assay.
[A] No

[Q] What did this assay record as the result for COc1cc2c(/C=C3/C(=O)Nc4ccc(O)cc43)c(Cl)n(Cc3cc(OC)c(OC)c(OC)c3)c2cc1C ?
[A] No

[Q] Field: outcome | Entry: COc1ccc2c(c1)C(=O)c1c-2c(N2CCN(C(=O)CCNCCNCCN)CC2)nc2ccccc12
[A] No

[Q] Status in this test for CC1(C)CCc2c(c(N=Nc3ccccc3F)c3ccccc3c2O)O1 ?
[A] No

[Q] Recorded call for COc1cc(NS(C)(=O)=O)ccc1Cc1c2ccccc2nc2ccccc12 ?
[A] Yes

----------
TGI overview
# Tested on: 786-0 renal
# test_description: NCI tumour cell line growth inhibition, 48 h
Reply with just the number (in nM).

INSERT INTO assay_data (compound, assay_endpoint, data_value) VALUES
  ('COc1ccc(CNCCCN2C(=O)c3ccc4c5c(ccc(c35)C2=O)C(=O)N(CCCNCc2ccc(OC)c(OC)c2OC)C4=O)c(OC)c1OC', 'TGI', 1020);

Read the next record carefully.
[Q] # value lookup — system 786-0 renal, readout TGI, item CC(C)CCCCCCCCCCCCC(=O)NCC(=O)NC1C(C)OC(Nc2ncnc3nc[nH]c23)C(O)C1O (stereo not given)
[A] 232

----------
# Test system: SNB-75 CNS
# test_description: NCI tumour cell line growth inhibition, 48 h
assay_endpoint: TGI

[Q] For the molecule shown here, COc1ccc(-c2cc(=O)c3cc(Cl)ccc3[nH]2)cc1 , give the reported TGI.
[A] > 100 µM

[Q] Please look up its TGI: COc1ccc(C2CC(c3ccc(OC)cc3O)=NN2c2ccc(S(N)(=O)=O)cc2)cc1 (stereo not given)
[A] > 100 µM

[Q] Name the recorded TGI for O=[N+]([O-])c1cccc(C2=NN(c3ccccc3)C3c4ccccc4OCC23)c1 (stereo not given) .
[A] > 100 µM

[Q] Look at this molecule and give its reported TGI. O=Cc1ccccc1CCn1c(=O)c2cc3c(=O)n(CCc4ccccc4C=O)c(=O)c3cc2c1=O
[A] > 100 µM

[Q] Which measured TGI value corresponds to COc1ccc2nc3c(cc2c1)C(=O)CC(c1ccccc1)C3 (stereo not given) ?
[A] > 100 µM

[Q] What measured TGI goes with COc1ccc(/C=C2/SC(=Nc3ccccc3)N(NC(=O)Cc3ccccc3)C2=O)c(OC)c1 ?
[A] > 100 µM

[Q] I have this molecule here, C/C(CC(C)(C)N1CC1)=N\NC(=O)Nc1cccc2ccccc12 , and I need its recorded TGI.
[A] 13.8 µM

[Q] // TGI lookup, key: CO/C=C(\Br)c1ccc2c(c1)OCO2
[A] > 100 µM

[Q] Consider the molecule shown here: [C-]#[N+]C(=C\c1ccc(O)cc1)/C(=C/c1ccc(O)cc1)[N+]#[C-] What is its recorded TGI?
[A] 6.83 µM

[Q] What value of TGI has been reported for the following molecule? CC(C)CCCCCCCCCCCCC(=O)NCC(=O)NC1C(C)OC(Nc2ncnc3nc[nH]c23)C(O)C1O (stereo not given)
[A] 0.00316 µM
